# Tested on: A498 renal
# Experiment: NCI tumour cell line growth inhibition, 48 h
Measure name: TGI

Some solved entries appear below for comparison.
Prompt: So what's the measured TGI for this one? `Cc1ccc(/C=C2\CCCCC2=O)cc1`
Response: > 100 µM

Prompt: Next entry: `COc1cc(/C=C2\[C@@H]3NC(Cc4c(OC)c(C)c(OC)c(OC)c43)C(=O)N2Cc2ccccc2)c(OC)c(C)c1OC`
Response: > 100 µM

Prompt: Next entry: CCCCCCCCN(CCCCCCCC)CC(O)c1cc(-c2ccccc2)nc2ccc(OC)cc12 (stereo unspecified)
Response: > 100 µM

Prompt: Next entry: `CCCN=C1NC(C)=CSC(Nc2ccccc2)=C1C#N`
Response: > 100 µM

Prompt: Next entry: `CCOC(=O)C1=C(Nc2ccc(OC)cc2)C(N)=NC1=N`
Response: 8.11 µM

Next:
Prompt: So what's the measured TGI for this one? Oc1c(C(c2ccc(F)cc2)N2CCCCC2)ccc2cncnc12 (stereo unspecified)
Response: 9.43 µM
